# system.tested: Papain (Carica papaya)
# experiment.summary: Primary qHTS assay for inhibitors of the protease papain (AID 1645873);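 also: papain turnover of Z-FR-AMC read as the AMC fluorescence gain over 10 min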
# settings: papain Z-FR-AMC cleavage, AMC fluorescence; series mostly up to 49.8 µM
Inconclusive results are not listed. Active and inactive are the calls of the source. Calls follow the shape of the dose curve; as a rule, active = well fitted inhibition curve with a large enough effect; inconclusive = small, poorly fitted or top-dose-only effect; inactive = no such curve, though single readings can be large or run the other way.
Valid outcomes are listed here; reply with one: 1.0 for active, 0.0 for inactive

Some solved entries appear below for comparison.
| molecule | system.tested | label |
| --- | --- | --- |
| COc1cc(OC)cc(-c2cc3cnc(N)nc3nc2NC(=O)NC(C)(C)C)c1 | Papain (Carica papaya) | 0.0 |
| CCCCN(CC)c1nc(C)nc2c1c(C)cn2-c1c(C)cc(C)cc1C | Papain (Carica papaya) | 0.0 |
| C#C[C@]1(O)CC[C@H]2[C@@H]3CCC4=Cc5oncc5CC4(C)[C@H]3CCC21C (stereo partly drawn) | Papain (Carica papaya) | 0.0 |

Given `Cn1c(=O)c(-c2c(Cl)cccc2Cl)cc2cnc(Nc3ccc(N4CCOCC4)cc3)nc21` , state the outcome it received in this test. 0.0

Given `O=C(/C=C/c1ccc(O)cc1)c1ccc(O)cc1O` , state the outcome it received in this test. 0.0

Given `c1ccc(-c2ccccn2)nc1` , state the outcome it received in this test. 0.0

Given `Nc1nc(Nc2ccccc2)nc2c1ncn2[C@@H]1O[C@H](CO)[C@@H](O)[C@H]1O` , state the outcome it received in this test. 0.0

Given `Cc1cc2c(cc1Cl)N(C(=O)Nc1ccc(Oc3cccnc3C)nc1)CC2` , state the outcome it received in this test. 0.0

* * *

# system.tested: Cytochrome P450 2D6 (Homo sapiens) (UniProt P10635)
# Sequence (P10635 whole entry, looked up): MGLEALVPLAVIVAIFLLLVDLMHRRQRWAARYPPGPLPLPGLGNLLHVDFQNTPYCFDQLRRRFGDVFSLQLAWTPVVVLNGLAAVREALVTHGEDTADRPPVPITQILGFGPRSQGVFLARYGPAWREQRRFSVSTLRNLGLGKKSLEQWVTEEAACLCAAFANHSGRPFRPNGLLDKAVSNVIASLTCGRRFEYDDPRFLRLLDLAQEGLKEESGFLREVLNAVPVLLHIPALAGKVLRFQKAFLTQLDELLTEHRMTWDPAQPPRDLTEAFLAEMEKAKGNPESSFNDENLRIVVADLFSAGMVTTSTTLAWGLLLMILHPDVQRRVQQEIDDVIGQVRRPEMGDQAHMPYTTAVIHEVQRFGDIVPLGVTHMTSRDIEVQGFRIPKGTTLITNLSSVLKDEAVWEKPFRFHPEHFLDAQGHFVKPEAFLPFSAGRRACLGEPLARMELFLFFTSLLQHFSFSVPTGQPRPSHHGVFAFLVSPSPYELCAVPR
# experiment.summary: Cytochrome P450 family 2 subfamily D member 6 (CYP2D6) small molecule antagonists: luciferase biochemical (cell-free) qHTS assay (AID 1645840); also: nearly all actives have a fitted effect of over 55% in size
# settings: P450-Glo CYP2D6 enzyme, luciferin luminescence, 1 h; series mostly up to 57.4 µM
Results filed as inconclusive are left out. The source made the active and inactive calls. The call rests on the fitted dose curve; in most records, active means well fitted inhibition curve with a large enough effect in the repeat runs; inconclusive means weak or mixed curves; inactive means flat fitted curve, though single readings scatter.
Valid outcomes are listed here; reply with one: active, inactive

Some solved entries appear below for comparison.
| mol.smiles | label |
| --- | --- |
| CN(C)c1ccc(C(=C2C=CC(=[N+](C)C)C=C2)c2ccccc2)cc1 | active |
| Clc1ccccc1-c1nc(-c2ccncc2)no1 | active |
| CO/N=C(\C(=O)N[C@@H]1C(=O)N2C(C(=O)O)=C(COC(C)=O)CS[C@H]12)c1csc(N)n1 | inactive |
| [O-][n+]1ccccc1SSc1cccc[n+]1[O-] | active |
| COC(=O)c1nc(Cl)c(Cl)nc1N | inactive |
| CNC(=O)c1c(I)c(NC(=O)CCCCC(=O)Nc2c(I)c(C(=O)O)c(I)c(C(=O)NC)c2I)c(I)c(C(=O)O)c1I | inactive |

Attention now shifts to the item below.
Given `CC(=O)c1ccc(OCC(=O)N2CCCCC2)cc1` , state the outcome it received in this test. inactive

* * *

# Tested on: CP286
# experiment.summary: qHTS profiling for inhibitors of Plasmodium falciparum proliferation (AID 504749); also: nearly all actives have a fitted effect of over 60% in size
# settings: P. falciparum in erythrocytes, SYBR Green DNA, 72 h; series mostly up to 28.7 µM
Records with an inconclusive call do not appear. Calls of active or inactive are those of the source. Calls follow the shape of the dose curve; as a rule, active = well fitted inhibition curve with a large enough effect; inconclusive = small, poorly fitted or top-dose-only effect; inactive = flat fitted curve, though single readings scatter.
Valid outcomes are listed here; reply with one: label 1 = active, label 0 = inactive

Some solved entries appear below for comparison.
| compound | label |
| --- | --- |
| CN(C)c1ccc(C(=C2C=CC(=[N+](C)C)C=C2)c2ccccc2)cc1 | label 1 |
| CCC1C(=O)OCC1Cc1cncn1C (configuration not stated) | label 0 |
| O=C1CN(/N=C/c2ccc(-c3ccc([N+](=O)[O-])cc3)o2)C(=O)N1 | label 0 |
| CCOc1ccc2nc(S(N)(=O)=O)sc2c1 | label 0 |
| CC(C(=O)O)c1ccc2c(c1)[nH]c1ccc(Cl)cc12 (configuration not stated) | label 0 |
| O=C(O)[C@H](CC(=O)N1C[C@H]2CCCC[C@H]2C1)Cc1ccccc1 | label 0 |
| CC1(C)[C@@H](O)CC[C@]2(C)[C@H]3C(=O)C=C4[C@@H]5C[C@@](C)(C(=O)O)CC[C@]5(C)CC[C@@]4(C)[C@]3(C)CC[C@@H]12 | label 0 |
| Nc1ccc(O)c(C(=O)O)c1 | label 0 |
| O=C(Nc1ccc(C(=O)O)c(O)c1)c1ccccc1 | label 0 |
| CC1(C)C[C@@H]1C(=O)N/C(=C\CCCCSC[C@H](N)C(=O)O)C(=O)O | label 0 |

Given `CC1(C)S[C@@H]2[C@H](NC(=O)[C@H](NC(=O)N3CCN(S(C)(=O)=O)C3=O)c3ccccc3)C(=O)N2[C@H]1C(=O)O` , state the outcome it received in this test. label 0

Given `Cc1nc2ccccc2n1Cc1ccc(Cl)cc1` , state the outcome it received in this test. label 0
